Target: T1, recombinant human IL-6 (human, UniProt P05231 30-212)
T1 construct: Bought protein
T1 sequence (P05231 30-212 limits assumed): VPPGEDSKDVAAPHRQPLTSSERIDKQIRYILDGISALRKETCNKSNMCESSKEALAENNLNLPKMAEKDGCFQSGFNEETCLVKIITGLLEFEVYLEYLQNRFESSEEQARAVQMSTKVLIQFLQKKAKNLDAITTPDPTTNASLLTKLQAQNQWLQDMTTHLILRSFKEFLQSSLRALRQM
Test: SPR Biacore, supernatant Ab on Protein A chip, IL-6 analyte, 25 C

[
  {
    "Binder": "anti-IL-6 antibody, heavy chain variant I (M34I, G66D, I108V) / light chain variant IV (M32L, M50A, N52S, M88Q) (antibody, V domains shown, See note of m39; also called M34I, G66D, I108V/ M32L, M50A, N52S, M88Q; I/IV) VH: EVQLVESGGGLVQPGGSLRLSCAASGFTFSPFAISWVRQAPGKGLEWVAKISPGGSWTYYSDTVTDRFTFSLDTSKSTAYLQMNSLRAEDTAVYYCARQLWGYYALDVWGQGTLVTVSS VL: DIQLTQSPSSLSASVGDRVTITCSASISVSYLYWYQQKPGKAPKLLIYDASSLASGVPSRFSGSGSGTDFTLTISSLQPEDFATYYCQQWSGYPYTFGQGTKVEIK",
    "Units label": "M⁻¹ s⁻¹",
    "kon": 462000
  },
  {
    "Binder": "anti-IL-6 antibody, light chain V29L (heavy chain WT) (antibody, V domains shown, See note of m2; also called WT / V29L) VH: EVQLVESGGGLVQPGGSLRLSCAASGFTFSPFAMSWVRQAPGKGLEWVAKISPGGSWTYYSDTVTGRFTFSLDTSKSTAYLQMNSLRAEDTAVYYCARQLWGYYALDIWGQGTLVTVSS VL: DIQLTQSPSSLSASVGDRVTITCSASISLSYMYWYQQKPGKAPKLLIYDMSNLASGVPSRFSGSGSGTDFTLTISSLQPEDFATYYCMQWSGYPYTFGQGTKVEIK",
    "Units label": "M⁻¹ s⁻¹",
    "kon": 351000
  },
  {
    "Binder": "anti-IL-6 antibody, light chain S30A (heavy chain WT) (antibody, V domains shown, See note of m2; also called WT / S30A) VH: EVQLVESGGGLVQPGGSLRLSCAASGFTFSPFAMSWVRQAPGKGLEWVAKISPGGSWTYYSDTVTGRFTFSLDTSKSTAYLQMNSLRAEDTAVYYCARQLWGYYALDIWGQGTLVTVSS VL: DIQLTQSPSSLSASVGDRVTITCSASISVAYMYWYQQKPGKAPKLLIYDMSNLASGVPSRFSGSGSGTDFTLTISSLQPEDFATYYCMQWSGYPYTFGQGTKVEIK",
    "Units label": "M⁻¹ s⁻¹",
    "kon": 255000
  }
]
